Reference for the values: PubChem BioAssay AID504419

Molecular target: NS3h 1b (con1)
Assay: NS3 helicase inhibitors across HCV genotypes, late-stage follow-up, selectivity assay for HCV NS3 helicase inhibitor project, biochemical, real-time fluorescence, genotypes 2a and 1b, Set 2 (AID 504419)
Conditions: Recombinant NS3 helicase, real-time fluorescence unwinding
Activity calls are given as the source filed them. How the calls were made is not given here.
I would appreciate it if you answered using one of these outcomes: active, inactive

Take a look at these entries with their results.
{"columns": ["compound", "class"],
 "data": [
  ["Cc1ccc(C(=O)Nc2ccc(-c3nc4ccc(-c5nc6ccc(C)c(S(=O)(=O)O)c6s5)cc4s3)cc2)cc1", "active"],
  ["Cc1ccc(/C=C/C(=O)Nc2ccc([N+](=O)[O-])c(NC(=O)/C=C/c3ccc(C)o3)c2)o1", "inactive"],
  ["COc1cc(Br)cc(C2C(C(=O)c3ccc(C)o3)=C(O)C(=O)N2c2cc(C)on2)c1OC (stereo not drawn)", "inactive"]
]}

How was `COc1cc2oc(=O)cc(-c3ccc(-c4ccc(NC(C)=O)cc4)cc3)c2c(OC)c1OC` classified in this test? inactive

How was `NC(=S)N/N=C/c1ccc(C23CC4CC(CC(C4)C2)C3)cc1` classified in this test? inactive

How was `Cc1ccc2nc(-c3ccc(NC(=O)c4ccc(F)cc4)cc3)sc2c1` classified in this test? inactive

How was CCOc1ccc(C2C(C(=O)c3ccc(C)o3)=C(O)C(=O)N2c2cc(C)on2)cc1 (stereo not drawn) classified in this test? inactive

How was COc1c(N2CCN(C(=S)NCc3ccccc3)C(C)C2)c(F)cc2c(=O)c(C(=O)O)cn(C3CC3)c12 (stereo not drawn) classified in this test? inactive
